The origin of these recorded values is patent US8178506B2.

system: IL-12 mRNA; experiment: IL-12 mRNA in LPS-activated primary murine macrophages; assay type: cell-based, mouse; conditions: 600 nM, −IFN, LPS; average of 3 treatments
In the oligonucleotide strings, read from the 5' end, every base follows the letter of its sugar. An asterisk marks phosphorothioate; unmarked linkages are phosphodiester. Other units and linkages are bracketed, terminal groups are in braces. A string of capitals states the bases alone. e = 2'-O-(2-methoxyethyl) (MOE); [5mC] = 5-methylcytosine; d = 2'-deoxy (DNA)
quantity_kind: IL-12 mRNA expression, % UTC (% UTC)
Hi! Could you send only the number? It should be in % UTC, unit omitted.

substance="327941 (antisense eA*eA*e[5mC]*e[5mC]*e[5mC]*eA*e[5mC]*e[5mC]*eG*eA*e[5mC]*eA*eG*e[5mC]*eA*eA*eT*eG*eA*eA*eT*eG*eT*eT) [compound 327941]" value=41
substance="229927 (antisense e[5mC]*e[5mC]*eA*e[5mC]*eA*dT*dT*dG*dA*dG*dT*dT*dT*d[5mC]*dT*eT*eT*eA*eA*eG) [compound 229927]" value=46
substance="129690 (antisense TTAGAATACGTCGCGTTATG; sugars from the 5' end e5 d10 e5, all phosphorothioate, methylation of C not given here) [compound 129690]" value=128
substance="342683 (antisense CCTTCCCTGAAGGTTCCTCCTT; scrambled control, further chemistry not given here) [compound 342683]" value=130
substance="289606 (antisense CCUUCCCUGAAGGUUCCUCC; all 2'-MOE, all C 5-methyl, all phosphorothioate, T or U not given here) [compound 289606]" value=98

API: the following record is the query input.
Dear colleague, I am looking for the recorded IL-12 mRNA expression, % UTC of the following substance: 327921 (antisense e[5mC]*eT*eT*e[5mC]*e[5mC]*eA*eG*eT*e[5mC]*eG*eG*eG*eG*eA*eT*eG*eT*eT*eT*eA*e[5mC]*eA) [compound 327921]
53

----------
tested on: HeLa cells; test: Cell cycle assay in HeLa cells; type: cell-based, human; conditions: HeLa cells, 150 nM, 48 hours, relative to untreated control
In the oligonucleotide strings, read from the 5' end, every base follows the letter of its sugar. An asterisk marks phosphorothioate; unmarked linkages are phosphodiester. Other units and linkages are bracketed, terminal groups are in braces. A string of capitals states the bases alone. e = 2'-O-(2-methoxyethyl) (MOE); [5mC] = 5-methylcytosine; d = 2'-deoxy (DNA)
Quick list: % cells in cell cycle phase aneuploid per entry.
Write down the numeric answer in % and omit the unit.

May I ask what % cells in cell cycle phase aneuploid has been recorded for 328403 (antisense eA*eG*eG*e[5mC]*e[5mC]*dT*dA*dT*dT*d[5mC]*d[5mC]*dT*dG*dT*dA*eG*e[5mC]*eA*eA*eA) [compound 328403] ?
175

Param item = 338678 (antisense CTGGTTGGGTATGAGACAGA; all 2'-MOE, all phosphorothioate, methylation of C not given here) [compound 338678] ; retrieve measured % cells in cell cycle phase aneuploid.
132

Could you tell me which % cells in cell cycle phase aneuploid is on file for 338836 (antisense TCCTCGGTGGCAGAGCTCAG; all 2'-MOE, all phosphorothioate, methylation of C not given here) [compound 338836] ?
114

----------
system: HSL; assay: HSL mRNA expression in adipocytes (real-time PCR); assay type: cell-based, human; settings: Table 17; differentiating adipocytes; control = treatment with ISIS 342673
In the oligonucleotide strings, read from the 5' end, every base follows the letter of its sugar. An asterisk marks phosphorothioate; unmarked linkages are phosphodiester. Other units and linkages are bracketed, terminal groups are in braces. A string of capitals states the bases alone. e = 2'-O-(2-methoxyethyl) (MOE); [5mC] = 5-methylcytosine
quantity_kind: HSL mRNA

substance="342673 (antisense eA*eG*eA*e[5mC]*eT*eA*eG*e[5mC]*eG*eG*eT*eA*eT*e[5mC]*eT*eT*eT*eA*eT*e[5mC]*e[5mC]*e[5mC]) [compound 342673]" measurement_target=HSL value="100.0 percentage of control"

Let's switch to this substance now.
Given the entry 328121 (antisense eA*eT*eG*eA*e[5mC]*eT*eA*e[5mC]*eA*eA*eG*eT*eT*eT*eA*eT*eG*eG*e[5mC]*e[5mC]*eA) [compound 328121] , report its measured HSL mRNA.
126.0 percentage of control

----------
test system: leptin; test: Leptin secretion by adipocytes (ELISA); format: cell-based, human; details: adipocytes, 250 nM oligomeric compound, day nine post-transfection, relative to control (1.0); Table 16
In the oligonucleotide strings, read from the 5' end, every base follows the letter of its sugar. An asterisk marks phosphorothioate; unmarked linkages are phosphodiester. Other units and linkages are bracketed, terminal groups are in braces. A string of capitals states the bases alone. e = 2'-O-(2-methoxyethyl) (MOE); [5mC] = 5-methylcytosine
quantity_kind: Leptin (secretion)
Give the figure by itself; no unit, no explanation.

Some substances with known Leptin (secretion) results, for comparison:
substance="327938 (antisense eA*eA*e[5mC]*eA*eA*eT*eA*e[5mC]*eA*eA*e[5mC]*eT*eT*eA*e[5mC]*eT*eA*e[5mC]*e[5mC]*eT*e[5mC]*eA) [compound 327938]" measurement_target=leptin quantity_kind="Leptin (secretion)" value=1.35
substance="327942 (antisense e[5mC]*e[5mC]*eA*eT*e[5mC]*eT*eT*eT*eA*e[5mC]*e[5mC]*eA*eG*eA*e[5mC]*eA*eG*eT*eG*eT*eT) [compound 327942]" measurement_target=leptin quantity_kind="Leptin (secretion)" value=2.03

Kindly state the measured Leptin (secretion) obtained for 327967 (antisense eA*e[5mC]*eT*eG*eT*eA*e[5mC]*eA*eA*eA*e[5mC]*eT*eA*e[5mC]*eT*eA*e[5mC]*e[5mC]*eT*e[5mC]*eA) [compound 327967] with leptin.
1.22

Fill in the recorded Leptin (secretion) for this substance, with leptin as test system: 327934 (antisense eG*eG*eT*eA*e[5mC]*eA*eA*eT*e[5mC]*eA*eA*e[5mC]*eG*eG*eT*e[5mC]*eG*eA*eT*eG*eG*eT) [compound 327934]
1.25

Give the reported Leptin (secretion) for 327919 (antisense eG*eA*eA*eA*e[5mC]*e[5mC]*e[5mC]*eA*eG*e[5mC]*eA*eG*eA*e[5mC]*eA*eA*eT*eG*eT*eA*eG*e[5mC]*eT) [compound 327919] (system: leptin).
1.44

----------
tested on: IL-12 mRNA; test: IL-12 mRNA in LPS-activated primary murine macrophages; format: cell-based, mouse; details: 300 nM oligomeric compound, stimulation with IFN-gamma and LPS; average of 2 experiments; normalized to LPS-treated cells without oligomeric compound
In the oligonucleotide strings, read from the 5' end, every base follows the letter of its sugar. An asterisk marks phosphorothioate; unmarked linkages are phosphodiester. Other units and linkages are bracketed, terminal groups are in braces. A string of capitals states the bases alone. e = 2'-O-(2-methoxyethyl) (MOE); [5mC] = 5-methylcytosine
// assign Satisfied if IL-12 mRNA expression, +IFN % UTC falls strictly below 9 % UTC, else Not satisfied (ties count as Not satisfied)

Before answering, review these 3 worked examples.
substance="327899 (antisense e[5mC]*eA*eG*eT*eG*eA*eA*eT*eT*e[5mC]*eT*eA*e[5mC]*e[5mC]*eA*eG*eT*eG*e[5mC]*e[5mC]*eA*eT*eA) [compound 327899]" class=Satisfied
substance="341793 (antisense CCAUAAAGUAGGAAACACUACA; all 2'-MOE, all phosphorothioate, methylation of C and T or U not given here) [compound 341793]" class="Not satisfied"
substance="327941 (antisense eA*eA*e[5mC]*e[5mC]*e[5mC]*eA*e[5mC]*e[5mC]*eG*eA*e[5mC]*eA*eG*e[5mC]*eA*eA*eT*eG*eA*eA*eT*eG*eT*eT) [compound 327941]" class="Not satisfied"

Regarding 341786 (antisense CGCAAGGUCGGUUCUACGGGUG; all 2'-MOE, all phosphorothioate, methylation of C and T or U not given here) [compound 341786] , kindly confirm whether its IL-12 mRNA expression, +IFN % UTC is beneath 9 % UTC.
Not satisfied

----------
test system: PPARγ; assay: PPARγ mRNA expression in adipocytes (real-time PCR); type: cell-based, human; conditions: differentiating adipocytes transfected with oligomeric compound; Table 75
In the oligonucleotide strings, read from the 5' end, every base follows the letter of its sugar. An asterisk marks phosphorothioate; unmarked linkages are phosphodiester. Other units and linkages are bracketed, terminal groups are in braces. A string of capitals states the bases alone. e = 2'-O-(2-methoxyethyl) (MOE); [5mC] = 5-methylcytosine
quantity_kind: PPAR gamma mRNA

// lookup PPAR gamma mRNA for 328109 (antisense eA*eA*eA*eG*eA*eA*eG*eT*eA*eT*eA*eT*eG*e[5mC]*eA*eT*eA*eG*eG*eA*eA) [compound 328109]
69 percentage of untreated control (UTC)

Which PPAR gamma mRNA is reported for this substance? 328095 (antisense eT*e[5mC]*eA*e[5mC]*eA*eG*eA*eG*eA*eA*eA*eA*e[5mC]*eA*eA*e[5mC]*eT*eG*eG*eT*eA) [compound 328095]
92 percentage of untreated control (UTC)

Quick check: PPAR gamma mRNA of 328127 (antisense eA*eA*e[5mC]*eG*eA*eT*eA*eA*eA*eA*e[5mC]*eA*eT*eA*e[5mC]*eT*eT*eG*eT*e[5mC]*eA) [compound 328127] ?
85 percentage of untreated control (UTC)
